Tested on: MDCK-LE monolayers
assayMethodText: Cell-based transwell assay with MDCK-low efflux monolayers (passive permeability)
Assay type: in vitro ADME
measurementConditions: MDCK-LE monolayers
Starred links: 1 amine or outer side, 2 acyl side, 3 side chain; linkers in the order of their positions; H or OH if unused. Positions of bridges follow the written chain, without caps; N, C: chain ends. Non-standard residues stand in square brackets, D forms with d. Residues, ends and D or L forms follow the SMILES beside them. ξ: configuration not given here. *: point of attachment. Leu(3R-OH,Nα-propionyl) = CCC(=O)N[C@H](C(=O)*)[C@H](O)C(C)C; X1 = CC(C)[C@@H](O[*:3])[C@H](N[*:1])C(=O)[*:2]; X5 = CSC[C@@H](O[*:3])[C@H](N[*:1])C(=O)[*:2]; X3 = CC(C)C(O[*:3])C(N[*:1])C(=O)[*:2]; X4 = CCC(=O)N[C@H](C(=O)*)[C@H](O)CSC; ξLeu(3ξ-OH) = CC(C)C(O)C(N)C(=O)O; NMeT = CN[CH](C(=O)O)[CH](C)O; dPhLac = O=C(O)[C@H](O)Cc1ccccc1; PhLac = O=C(O)[CH](O)Cc1ccccc1; NMeA = CN[CH](C)C(=O)O; dNMeA = CN[C@H](C)C(=O)O; NMeDha = C=C(NC)C(=O)O
quantityKind: Papp A − B (×10⁻⁶ cm/s)
Give bare numbers, in ×10⁻⁶ cm/s.

Reference set (4 entries):
I would be grateful if you could share the reported Papp A − B for C=C1C(=O)N[C@@H](C)C(=O)N(C)[C@@H](C)C(=O)N[C@@H]([C@H](OC(=O)[C@@H](NC(=O)CC)[C@H](O)CSC)C(C)C)C(=O)N(C)[C@@H]([C@@H](C)OC)C(=O)O[C@H](C(C)C)[C@H](NC(C)=O)C(=O)O[C@H](Cc2ccccc2)C(=O)N1C [Compound 4] (Ac-[X1][dPhLac][NMeDha]A[NMeA][X1](X4)[NMeT](Me); ester 1-C) . 1.71

# input compound: CCC(=O)N[C@H](C(=O)O[C@H](C(C)C)[C@@H]1NC(=O)[C@H](C)N(C)C(=O)[C@H](C)NC(=O)[C@@H](C)N(C)C(=O)[C@@H](Cc2ccccc2)OC(=O)[C@@H](NC(C)=O)[C@@H](C(C)C)OC(=O)[C@H]([C@@H](C)OC)N(C)C1=O)[C@H](O)C(C)C [Compound 11] (Ac-[X1][dPhLac][dNMeA]A[NMeA][X1](Leu(3R-OH,Nα-propionyl))[NMeT](Me); ester 1-C) ; wanted: its Papp A − B 8.5

Item C=C1C(=O)N[C@@H](C)C(=O)N(C)[C@@H](C)C(=O)N[C@@H]([C@@H](CSC)OC(=O)[C@@H](NC(=O)CC)[C@H](O)C(C)C)C(=O)N(C)[C@@H]([C@@H](C)OC)C(=O)O[C@H](C(C)C)[C@H](NC(C)=O)C(=O)O[C@H](Cc2ccccc2)C(=O)N1C [Compound 3] (Ac-[X1][dPhLac][NMeDha]A[NMeA][X5](Leu(3R-OH,Nα-propionyl))[NMeT](Me); ester 1-C) has what recorded Papp A − B? 12.2

Need Papp A − B, item C=C1C(=O)NC(C)C(=O)N(C)C(C)C(=O)NC(C(O)C(C)C)C(=O)N(C)C(C(C)OC)C(=O)OC(C(C)C)C(NC(C)=O)C(=O)OC(Cc2ccccc2)C(=O)N1C (centres unmarked) [Compound 12] (Ac-[X3][PhLac][NMeDha]A[NMeA][ξLeu(3ξ-OH)][NMeT](Me); ester 1-C; configuration not given here) 0.55

Attention now shifts to the item below.
May I ask what Papp A − B has been recorded for C=C1C(=O)N[C@@H](C)C(=O)N(C)[C@@H](C)C(=O)N[C@@H]([C@H](OC(=O)[C@@H](NC(=O)CC)[C@H](O)C(C)C)C(C)C)C(=O)N(C)[C@@H]([C@@H](C)OC)C(=O)O[C@H](CSC)[C@H](NC(C)=O)C(=O)O[C@H](Cc2ccccc2)C(=O)N1C [Compound 2] (Ac-[X5][dPhLac][NMeDha]A[NMeA][X1](Leu(3R-OH,Nα-propionyl))[NMeT](Me); ester 1-C) ? 6.35

* * *

Provide the recorded % Fraction absorbed for the entries that follow.
System: MDCK-LE monolayers
assayMethodText: Cell-based transwell assay with MDCK-low efflux monolayers (passive permeability)
Format: in vitro ADME
measurementConditions: MDCK-LE monolayers
Starred links: 1 amine or outer side, 2 acyl side, 3 side chain; linkers in the order of their positions; H or OH if unused. Positions of bridges follow the written chain, without caps; N, C: chain ends. Non-standard residues stand in square brackets, D forms with d. Residues, ends and D or L forms follow the SMILES beside them. *: point of attachment. Leu(3R-O(AcLeu(3R-OH))) = CC(=O)N[C@H](C(=O)O[C@H](C(C)C)[C@H](N)C(=O)O)[C@H](O)C(C)C; Leu(3R-OH,Nα-propionyl) = CCC(=O)N[C@H](C(=O)*)[C@H](O)C(C)C; X1 = CC(C)[C@@H](O[*:3])[C@H](N[*:1])C(=O)[*:2]; NMeT = CN[C@H](C(=O)O)[C@@H](C)O; dPhLac = O=C(O)[C@H](O)Cc1ccccc1; NMeA = CN[C@@H](C)C(=O)O; dNMeA = CN[C@H](C)C(=O)O; NMeDha = C=C(NC)C(=O)O
Numbers only, in %.

Check out these entries, answers already filled in.
Name the recorded % Fraction absorbed for C=C1C(=O)N[C@@H](C)C(=O)N(C)[C@@H](C)C(=O)N[C@@H]([C@H](OC(=O)[C@@H](NC(C)=O)[C@H](O)C(C)C)C(C)C)C(=O)N(C)[C@@H]([C@@H](C)OC)C(=O)O[C@H](C)[C@H](NC(C)=O)C(=O)O[C@H](Cc2ccccc2)C(=O)N1C [Compound 13] (Ac-T[dPhLac][NMeDha]A[NMeA][Leu(3R-O(AcLeu(3R-OH)))][NMeT](Me); ester 1-C) . 46.5

What does the data say about its % Fraction absorbed? Entry: CCC(=O)N[C@H](C(=O)O[C@H](C(C)C)[C@@H]1NC(=O)[C@H](C)N(C)C(=O)[C@H](C)NC(=O)[C@@H](C)N(C)C(=O)[C@@H](Cc2ccccc2)OC(=O)[C@@H](NC(C)=O)[C@@H](C(C)C)OC(=O)[C@H]([C@@H](C)OC)N(C)C1=O)[C@H](O)C(C)C [Compound 11] (Ac-[X1][dPhLac][dNMeA]A[NMeA][X1](Leu(3R-OH,Nα-propionyl))[NMeT](Me); ester 1-C) 79.5

# ---- query compound ----
Reported % Fraction absorbed for CCC(=O)N[C@H](C(=O)O[C@H](C(C)C)[C@@H]1NC(=O)[C@H](C)N(C)C(=O)[C@H](C)NC(=O)[C@H](C)N(C)C(=O)[C@@H](Cc2ccccc2)OC(=O)[C@@H](NC(C)=O)[C@@H](C(C)C)OC(=O)[C@H]([C@@H](C)OC)N(C)C1=O)[C@H](O)C(C)C [Compound 10] (Ac-[X1][dPhLac][NMeA]A[NMeA][X1](Leu(3R-OH,Nα-propionyl))[NMeT](Me); ester 1-C) : what is it? 37.6

* * *

Tested on: MP41 uveal melanoma cell line (heterozygous GNA11 Q209L)
assayMethodText: Cell proliferation assay (resazurin cell viability), MP41 cell line
Type: cell-based
measurementConditions: MP41 (GNA11 Q209L); 96 hours of treatment; read-out: GI50 by cell line, MP41
Starred links: 1 amine or outer side, 2 acyl side, 3 side chain; linkers in the order of their positions; H or OH if unused. Positions of bridges follow the written chain, without caps; N, C: chain ends. Non-standard residues stand in square brackets, D forms with d. Residues, ends and D or L forms follow the SMILES beside them. ξ: configuration not given here. *: point of attachment. Leu(3R-O(AcLeu(3R-OH))) = CC(=O)N[C@H](C(=O)O[C@H](C(C)C)[C@H](N)C(=O)O)[C@H](O)C(C)C; Leu(3R-OH,Nα-propionyl) = CCC(=O)N[C@H](C(=O)*)[C@H](O)C(C)C; X1 = CC(C)[C@@H](O[*:3])[C@H](N[*:1])C(=O)[*:2]; X5 = CSC[C@@H](O[*:3])[C@H](N[*:1])C(=O)[*:2]; X3 = CC(C)C(O[*:3])C(N[*:1])C(=O)[*:2]; X4 = CCC(=O)N[C@H](C(=O)*)[C@H](O)CSC; ξLeu(3ξ-OH) = CC(C)C(O)C(N)C(=O)O; NMeT = CN[CH](C(=O)O)[CH](C)O; dPhLac = O=C(O)[C@H](O)Cc1ccccc1; X2 = CC(C)C=C(N[*:1])C(=O)[*:2]; PhLac = O=C(O)[CH](O)Cc1ccccc1; NMeA = CN[CH](C)C(=O)O; NMeDha = C=C(NC)C(=O)O
Records here are stratified by GI50; strata: low bracket = under 0.7 nM, middle bracket = from 0.7 nM up to 4 nM, high bracket = 4 nM and over

See these solved cases before continuing.
Which bin, given its GI50, does CCC(=O)N[C@H](C(=O)O[C@H](C(C)C)[C@@H]1NC(=O)[C@H](C)N(C)C(=O)[C@H](C)NC(=O)[C@H](C)N(C)C(=O)[C@@H](Cc2ccccc2)OC(=O)[C@@H](NC(C)=O)[C@@H](C(C)C)OC(=O)[C@H]([C@@H](C)OC)N(C)C1=O)[C@H](O)C(C)C [Compound 10] (Ac-[X1][dPhLac][NMeA]A[NMeA][X1](Leu(3R-OH,Nα-propionyl))[NMeT](Me); ester 1-C) occupy? high bracket

Band of C=C1C(=O)N[C@@H](C)C(=O)N(C)[C@@H](C)C(=O)N[C@@H]([C@H](OC(=O)[C@@H](NC(=O)CC)[C@H](O)C(C)C)C(C)C)C(=O)N(C)[C@@H]([C@@H](C)OC)C(=O)O[C@H](CSC)[C@H](NC(C)=O)C(=O)O[C@H](Cc2ccccc2)C(=O)N1C [Compound 2] (Ac-[X5][dPhLac][NMeDha]A[NMeA][X1](Leu(3R-OH,Nα-propionyl))[NMeT](Me); ester 1-C) ? middle bracket

Determine which band this molecule sits in: C=C1C(=O)N[C@@H](C)C(=O)N(C)[C@@H](C)C(=O)N[C@@H]([C@H](OC(=O)[C@@H](NC(C)=O)[C@H](O)C(C)C)C(C)C)C(=O)N(C)[C@@H]([C@@H](C)OC)C(=O)O[C@H](C(C)C)[C@H](NC(C)=O)C(=O)O[C@H](Cc2ccccc2)C(=O)N1C [Compound 8] (Ac-[X1][dPhLac][NMeDha]A[NMeA][Leu(3R-O(AcLeu(3R-OH)))][NMeT](Me); ester 1-C) low bracket

More entries:
Class label required: C=C1C(=O)N[C@@H](C)C(=O)N(C)[C@@H](C)C(=O)N[C@@H]([C@H](OC(=O)[C@@H](NC(C)=O)[C@H](O)C(C)C)C(C)C)C(=O)N(C)[C@@H]([C@@H](C)OC)C(=O)O[C@H](C)[C@H](NC(C)=O)C(=O)O[C@H](Cc2ccccc2)C(=O)N1C [Compound 13] (Ac-T[dPhLac][NMeDha]A[NMeA][Leu(3R-O(AcLeu(3R-OH)))][NMeT](Me); ester 1-C) high bracket

Which bin should I file C=C(C(=O)N[C@@H](C)C(=O)N(C)[C@@H](C)C(=O)N[C@H](C(=O)N(C)[C@H](C(=O)O)[C@@H](C)OC)[C@H](OC(=O)[C@@H](NC(=O)CC)[C@H](O)C(C)C)C(C)C)N(C)C(=O)[C@@H](Cc1ccccc1)OC(=O)C(=CC(C)C)NC(C)=O [Compound 5] (Ac-[X2][dPhLac][NMeDha]A[NMeA][X1](Leu(3R-OH,Nα-propionyl))[NMeT](Me)-OH) under? high bracket

State the class of the molecule shown: C=C1C(=O)N[C@@H](C)C(=O)N(C)[C@@H](C)C(=O)N[C@@H]([C@H](OC(=O)[C@@H](NC(=O)CC)[C@H](O)C(C)C)C(C)C)C(=O)N(C)[C@@H]([C@@H](C)OC)C(=O)O[C@H](C(C)C)[C@H](NC(C)=O)C(=O)O[C@H](Cc2ccccc2)C(=O)N1C [Compound (A1), FR900359] (Ac-[X1][dPhLac][NMeDha]A[NMeA][X1](Leu(3R-OH,Nα-propionyl))[NMeT](Me); ester 1-C) low bracket

Lab note: sort C=C1C(=O)N[C@@H](C)C(=O)N(C)[C@@H](C)C(=O)N[C@@H]([C@H](OC(=O)[C@@H](NC(=O)CC)[C@H](O)CSC)C(C)C)C(=O)N(C)[C@@H]([C@@H](C)OC)C(=O)O[C@H](C(C)C)[C@H](NC(C)=O)C(=O)O[C@H](Cc2ccccc2)C(=O)N1C [Compound 4] (Ac-[X1][dPhLac][NMeDha]A[NMeA][X1](X4)[NMeT](Me); ester 1-C) into the matching GI50 band. low bracket

Could you place C=C1C(=O)N[C@@H](C)C(=O)N(C)[C@@H](C)C(=O)N[C@@H]([C@H](OC(=O)[C@@H](NC(=O)CC)[C@H](O)C(C)C)C(C)C)C(=O)N(C)[C@@H]([C@@H](C)OC)C(=O)O[C@H](C)[C@H](NC(C)=O)C(=O)O[C@H](Cc2ccccc2)C(=O)N1C [Compound 14] (Ac-T[dPhLac][NMeDha]A[NMeA][X1](Leu(3R-OH,Nα-propionyl))[NMeT](Me); ester 1-C) in its proper category? Many thanks. middle bracket

For this molecule, which bin applies? C=C1C(=O)NC(C)C(=O)N(C)C(C)C(=O)NC(C(O)C(C)C)C(=O)N(C)C(C(C)OC)C(=O)OC(C(C)C)C(NC(C)=O)C(=O)OC(Cc2ccccc2)C(=O)N1C (stereo not drawn) [Compound 12] (Ac-[X3][PhLac][NMeDha]A[NMeA][ξLeu(3ξ-OH)][NMeT](Me); ester 1-C; configuration not given here) high bracket
